Measured soluble fraction (log2), listed per entry for reference.
experiment: soluble fraction after stress (log2 fold change); higher = more stays soluble; pooled small domains, quantitative proteomics; conditions: stress: 50 degC

The cases that follow already have their soluble fraction (log2) on record.
HMTTKYMVLVNWVKEKVRTNELKTGEKLYSEHEFSRMFHMSRQTVRHGISILERENIVERRQGSGTFIKDA	-3.06
HMSGKWKIRILWYIAEYEVQRFGELRRRLGDITQSTLTEQLRELEQDGFVSRYVYQEVPSKVEYSLTE	0.143
HMGKHYLLKDDNGTITIYKILEDGTQEVYEKTEISTTYLPQTDNIGIKQGIRVNGDEALNELIENF	-0.0212

Recorded soluble fraction (log2) (sequence HMEFDSLINYEVKKKETLFSISKKFKIEINDLLSFNTELKNNKLKKNSIIIIPLKKKIVESQNFEKQKIID ): -1.37

Recorded soluble fraction (log2) (sequence HMDISPAAKQRLALIQPLLEKNAEAITDRKLRNAVAKDIANNQNTTVRRVLRLYYRYLATGQVM ): 0.0392

Recorded soluble fraction (log2) (sequence HMATLQLPVPKITLYPGELIRSDHLTDQRFNARALYHSAVYKSREDIVGKVARRTLLPGQPIPVNALR ): -0.057

Recorded soluble fraction (log2) (sequence HMGSIDYLVGSRLRQYRRLRGYSLIEFSAMLHRSKSAISKYERGEVSIDLRTLNEMARLLDIPLSGLLL ): -4.56

Recorded soluble fraction (log2) (sequence HMSRWHEFLNKSEDGMKELDEQNQKVLTLLILQRFYQTPFQAKEDEEFYREFFERLSSVNEILG ): 0.0126

---

experiment: soluble fraction after stress (log2 fold change); higher = more stays soluble; pooled small domains, quantitative proteomics; settings: stress: 50 degC
Tick true if soluble fraction (log2) is -0.2 or greater. Tick false if soluble fraction (log2) is less than -0.2.

Study these solved cases before continuing.
HMLDVFSAEQVADVLSVSKRNLETWANNGKLIPDFIHGEVALYSKKQLEQFEQFQRFFNSSWDAERLIQP	false
HMEKELVSDFASRISTARSSKGWNHAELGKRMAETVNVIKSAESGKPPTDSVVKKLERVLGITLMEV	true
HMVDLAPTEEIIKNLPNNSRSLLIPTLQKIQNAYRYLPSPAMELLSEFLNVTRAEIYGVISFYPSLL	true
HMGSFAADVGRMVRLGRAKRGISRRKLAADSGISERYLAQIEGGQGNPSVNVLKAIADAISVPVFELLPH	false
HMEDDRLIQNLLLTAKNLVMDVGRMDESALAENEDTVRTAMLFALGYLYENRSNPDYHKLTLNLRSILFA	false

Challenge: Is reported soluble fraction (log2) greater than or equal to -0.2 here: HMKLISVAVMRASDAAEIAGGTDSKTLMYRAGLGLFQSWDWHGKIDIVTGSGNNAGDGYVLALLL
Response given: true

Challenge: Is reported soluble fraction (log2) greater than or equal to -0.2 here: HMVMTTVPEVLGMDISKAASLLTGKNLDYDYDLVESDKPKDQVIEQDVVKGTEVPEGTVIHLKVSKGPA
Response given: true

---

test: soluble fraction after stress (log2 fold change); higher = more stays soluble; pooled small domains, quantitative proteomics; conditions: stress: 50 degC
Tick Met if soluble fraction (log2) is -0.04 or greater. Tick Not met if soluble fraction (log2) is less than -0.04.

Challenge: Is reported soluble fraction (log2) greater than or equal to -0.04 here: HMTPVEVNARGVHVDFSKGGILLEDVVRHLILEALRASEWKRGPAAQLLGISKETLRYRMEKYRLYPP
Response given: Not met

Challenge: Is reported soluble fraction (log2) greater than or equal to -0.04 here: HMNQSKYQTIADELKSKILSGEYPENTTIPPELQLQKDYQVSRHTIRQAIALLANEGFLRKEKGSGTYVDV
Response given: Met

Where these numbers come from: the domain aggregation screens of Martell et al. (2025)
